Biological target: human PAD4 (Homo sapiens)
Construct: human PAD4 (NM_012387), A2-P663, was PCR amplified; His-SUMO (N, cleaved yes)
Sequence (Q9UM07 2-663): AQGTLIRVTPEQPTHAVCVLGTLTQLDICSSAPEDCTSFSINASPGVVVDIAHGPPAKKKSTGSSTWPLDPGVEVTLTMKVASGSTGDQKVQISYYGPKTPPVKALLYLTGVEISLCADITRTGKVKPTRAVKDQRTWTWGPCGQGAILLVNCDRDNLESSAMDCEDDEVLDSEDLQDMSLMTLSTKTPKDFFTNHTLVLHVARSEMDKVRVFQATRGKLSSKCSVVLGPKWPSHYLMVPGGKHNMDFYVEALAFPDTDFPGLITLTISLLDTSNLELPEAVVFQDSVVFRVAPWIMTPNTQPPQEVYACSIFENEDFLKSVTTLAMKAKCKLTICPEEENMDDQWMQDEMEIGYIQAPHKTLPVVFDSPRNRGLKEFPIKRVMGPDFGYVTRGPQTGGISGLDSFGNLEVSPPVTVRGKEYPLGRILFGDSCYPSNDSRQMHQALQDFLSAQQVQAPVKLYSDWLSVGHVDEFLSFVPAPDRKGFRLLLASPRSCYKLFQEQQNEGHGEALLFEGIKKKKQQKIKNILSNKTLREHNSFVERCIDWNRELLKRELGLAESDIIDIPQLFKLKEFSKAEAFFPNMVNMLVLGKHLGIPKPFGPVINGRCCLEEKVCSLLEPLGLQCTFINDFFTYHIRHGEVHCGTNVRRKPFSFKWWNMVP
Test: In vitro PAD4 BAEE biochemical assay
Conditions: BAEE substrate 3 mM, 5 nM PAD4, 2 mM calcium chloride; geometric mean of multiple experiments
pIC50: −log10 of the molar value.
outcome measure: pIC50

1) COC(C)Cn1c(-c2cc3ccc4nc3n2CCCCC[C@@H]2C[C@H]2C(=O)N[C@@H]4C)nc2cc(C(=O)N[C@H]3CNCC[C@@H]3F)c(F)cc21 (some centres unmarked) : 7.36
2) COc1cc(C(=O)N2C[C@H](N)[C@@H]3CC[C@H]2C3)cc2nc(-c3cc4ccc5nc4n3CCCCCCC3(CC3)C(=O)N[C@@H]5C)n(C)c12 : 7.14

[1] COc1cc(C(=O)N2[C@H]3CC[C@@H]2[C@H](N)C3)cc2nc(-c3cc4ccc5nc4n3C/C=C\CCCCCC(=O)N[C@@H]5C)c(C)n12
[2] COc1cc(C(=O)N2CC[C@@H](OC(F)F)[C@@H](N)C2)cc2nc(-c3cc4ccc5nc4n3CCCCCCC(C)(C)C(=O)N[C@@H]5C)n(C)c12
[3] COc1cc(C(=O)N[C@H]2CNCC[C@@H]2F)cc2nc(-c3cc4ccc5nc4n3CCCCC[C@@]3(C)C[C@@H]3C(=O)N[C@@H]5C)n(C)c12
[4] COc1cc(C(=O)N2CC[C@@H](OC)[C@@H](N)C2)cc2nc(-c3cc4ccc5nc4n3CCCCCc3nccnc3C(=O)N(C)[C@@H]5C)n(C)c12
[5] COc1cc(C(=O)N2CC[C@@H](OC)[C@@H](N)C2)cc2nc(-c3cc4ccc5nc4n3CCCCCc3ccnc(F)c3C(=O)N[C@@H]5C)n(C)c12
Task for the reader: rank each entry by its pIC50, from the minimum upward. // ordering of labels required in reply
3, 2, 4, 5, 1
